Quick reference: self-cleavage kobs at 2500 uM GlcN6P of the listed items.
B1: glmS ribozyme (parent)
chain: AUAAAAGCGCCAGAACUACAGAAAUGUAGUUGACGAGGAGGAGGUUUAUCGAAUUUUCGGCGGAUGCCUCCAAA

Variants of: B1
Protocol description: self-cleavage kobs at 2500 uM GlcN6P; higher = faster cleavage; RNA array
Applied conditions: with glucosamine-6-phosphate
Fewer inactive variants are shown than the library holds.
Number in s⁻¹, nothing else.

Below, 5 variants whose answers are already recorded.
C11U G66A    0.000661
C11A A14U C71U    6.69e-05
A39U U54G U55G    0.0171
A14G G29C A39G    0.000197
C34G U47G C68G    7.01e-05

response.value for A52C C67U C71G (field: self-cleavage kobs at 2500 uM GlcN6P) = 9.24e-05

response.value for C58A C68U (field: self-cleavage kobs at 2500 uM GlcN6P) = 0.000129

response.value for C16A G29C U45C (field: self-cleavage kobs at 2500 uM GlcN6P) = 0.000155

response.value for A53C G66C (field: self-cleavage kobs at 2500 uM GlcN6P) = 0.00034

response.value for A14C U65G (field: self-cleavage kobs at 2500 uM GlcN6P) = 0.000717
